assayed_system: EP2 receptor (Homo sapiens)
Sequence (P43116 whole entry): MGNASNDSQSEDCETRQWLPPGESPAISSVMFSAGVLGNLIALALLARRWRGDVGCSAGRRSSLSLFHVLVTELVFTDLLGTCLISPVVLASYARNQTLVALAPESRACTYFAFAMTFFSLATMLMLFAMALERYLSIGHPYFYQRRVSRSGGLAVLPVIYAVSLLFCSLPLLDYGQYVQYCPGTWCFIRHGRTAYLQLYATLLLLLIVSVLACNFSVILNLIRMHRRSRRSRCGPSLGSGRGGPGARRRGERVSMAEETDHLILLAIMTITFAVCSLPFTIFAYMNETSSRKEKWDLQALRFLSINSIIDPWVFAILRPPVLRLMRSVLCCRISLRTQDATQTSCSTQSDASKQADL
assay_details: Cell-based TR-FRET cAMP assay in BE
measure: EC50 (µM)
The reply should contain only the number, in µM.

-- ask For the compound CCCC1([C@H](O)C/C=C/[C@H]2[C@H](O)CC(=O)[C@@H]2CCCCCCC(=O)OC)CCC1 [butaprost] , give its reported EC50.
-- reply 0.47

* * *

assayed_system: EP2 receptor (Homo sapiens)
assay_details: cell-based
Type: cell-based
test_conditions: agonist EC50 for cAMP induction, SK-N-AS cells, n = 4
measure: EC50

-- ask For the compound CCCC1([C@H](O)C/C=C/[C@H]2[C@H](O)CC(=O)[C@@H]2CCCCCCC(=O)OC)CCC1 , give its reported EC50.
-- reply 170 nM

Values from paper PMC9282716
